The reported measurements were obtained from ChEMBL document CHEMBL4725481.

Measured CC50 at 72 h values are reported for all entries that follow.
- protocol_summary: Cytotoxicity against human MT4 cells treated for 3 days measured by Celltiter-glo luminescent assay
- Type: cell-based
- conditions_used: time 3 day

[N-]=[N+]=N[C@]1(CO)O[C@@H](n2ccc(=O)[nH]c2=O)[C@@H](F)[C@@H]1O	> 3.48 µM

Which CC50 at 72 h is listed for `C=C(C)[C@@H]1CC[C@]2(C(=O)OC)CC[C@]3(C)[C@H](CC[C@@H]4[C@@]5(C)C[C@@H](Cc6cn([C@H]7C[C@H](n8cc(C)c(O)nc8=O)O[C@@H]7CO)nn6)[C@H](O)C(C)(C)[C@@H]5CC[C@]43C)[C@@H]12` ? > 1.3 µM

Follow-up entry: `C=C(C)[C@@H]1CC[C@]2(C(=O)O)CC[C@]3(C)[C@H](CC[C@@H]4[C@@]5(C)CC[C@H](OC(=O)CC(C)(C)C(=O)O)C(C)(C)[C@@H]5CC[C@]43C)[C@@H]12` > 6.84 µM

Follow-up entry: `C=C(C)[C@@H]1CC[C@]2(C(=O)O)CC[C@]3(C)[C@H](CC[C@@H]4[C@@]5(C)C[C@@H](Cc6cn([C@]7(CO)O[C@@H](n8ccc(O)nc8=O)[C@@H](F)[C@@H]7O)nn6)[C@H](O)C(C)(C)[C@@H]5CC[C@]43C)[C@@H]12` 23.8 µM
